biological target: DLG4_3, P78352; assay: holdup assay; set-up: key: below the threshold = too weak to quantify, mostly under pKd 3.1 to 4; details: plain residues with an end cap or a label only (N-terminal biotin on a linker: ado-ado)
Sequence (P78352 306-403): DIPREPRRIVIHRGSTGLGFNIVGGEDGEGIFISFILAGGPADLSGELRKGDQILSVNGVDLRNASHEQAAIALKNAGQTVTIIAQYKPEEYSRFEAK
ASSAY ENDPOINT: pKd

Illustrative cases are given below, each with its answer.
Give the measured pKd of EAVTVESTSL [SLC22A11, Q9NSA0] . below the threshold

And what about the binder FVFESRKEIL [TBPL1, P62380] ? below the threshold

Also MQILSKPEFI [NPSR1, Q6W5P4] , if possible. 3.49

Can you handle IKLETKKTKL [SLC15A2, Q16348] next? below the threshold

Thanks! And DLLGGGSDSI [TNRC6B, Q9UPQ9] ? below the threshold

Others:
Reported pKd for EPAKETTTNV [SLC2A3, P11169] : what is it? 3.7

Also, HYPASPDSWV [CTNND2, Q9UQB3] please. below the threshold

Lookup GTMFLRETSL [GUCY1A2, P33402] 4.86

Now this one: ATKDKKITTV [EXOC4, Q96A65] 4.5

Same lookup for KAEEKPPSKV [SCN4B, Q8IWT1] , please. below the threshold
